assay details: AUC in mouse at 10 mg/kg, po by LC-MS analysis
Type: ADME, organism-based
experimental parameters: in vivo
endpoint name: AUC

Please give the documented AUC of "Cc1c(CC(=O)O)c(=O)oc2c(C)c(OCc3cccc(I)c3)ccc12"
130 µM·h

---

system name: Chloride anion exchanger (Mus musculus)
Sequence (Q9WVC8 whole entry): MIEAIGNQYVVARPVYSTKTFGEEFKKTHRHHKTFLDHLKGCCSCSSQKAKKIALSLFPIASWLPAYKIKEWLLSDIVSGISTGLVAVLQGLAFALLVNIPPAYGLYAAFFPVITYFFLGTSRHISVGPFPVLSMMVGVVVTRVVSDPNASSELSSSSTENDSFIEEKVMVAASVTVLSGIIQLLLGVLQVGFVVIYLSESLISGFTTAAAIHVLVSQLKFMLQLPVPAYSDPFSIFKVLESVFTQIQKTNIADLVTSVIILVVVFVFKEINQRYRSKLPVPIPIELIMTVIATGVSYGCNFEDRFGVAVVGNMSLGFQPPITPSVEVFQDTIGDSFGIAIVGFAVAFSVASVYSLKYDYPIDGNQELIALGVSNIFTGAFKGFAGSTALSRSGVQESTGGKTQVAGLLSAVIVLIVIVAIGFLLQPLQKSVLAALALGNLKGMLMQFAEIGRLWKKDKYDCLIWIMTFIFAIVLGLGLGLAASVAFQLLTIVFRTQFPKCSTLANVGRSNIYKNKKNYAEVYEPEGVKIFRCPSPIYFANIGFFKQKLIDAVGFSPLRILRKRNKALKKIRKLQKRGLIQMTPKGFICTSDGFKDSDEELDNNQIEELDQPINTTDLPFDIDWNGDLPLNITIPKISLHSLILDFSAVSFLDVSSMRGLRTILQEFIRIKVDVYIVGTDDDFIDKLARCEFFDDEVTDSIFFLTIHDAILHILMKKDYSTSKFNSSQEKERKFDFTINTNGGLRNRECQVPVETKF
assay details: Inhibition of mouse slc26a3 expressed in FRT cells co-expressing EYFP-H148Q/I152L/F46L assessed as reduction in protein-mediated chloride/iodide exchange preincubated for 10 mins followed by NaI-substituted PBS addition and measured by YFP-based fluorescence assay
Type: cell-based
pIC50: −log10 of the molar value.
Entries and their pIC50 values follow.

>>> observed_result("Cc1c(CC(=O)O)c(=O)oc2c(C)c(OCc3ccc(I)cc3)ccc12")
"< 5.30"

Specify measured pIC50 for "C=CCOc1ccc2c(C)c(CC(=O)O)c(=O)oc2c1C" .
< 5.30

Give the measured pIC50 for "Cc1c(CC(=O)O)c(=O)oc2c(C)c(OCc3cc(C(F)(F)F)cc(C(F)(F)F)c3)ccc12"
6.52

# return recorded pIC50 for input "Cc1c(CCC(=O)O)c(=O)oc2c(C)c(OCc3cccc(I)c3)ccc12"
< 5.30

Please look at this compound and report its pIC50: "Cc1c(CC(=O)O)c(=O)oc2c(C)c(OCCc3cccc(C(F)(F)F)c3)ccc12"
< 5.30

Tell us which pIC50 value is on record for "Cc1c(CC(=O)O)c(=O)oc2c(C)c(OCc3ccc(Br)cc3)ccc12"
< 5.30

Return pIC50 (reported value) for this compound: "Cc1c(CC(=O)O)c(=O)oc2c(C)c(OCc3cccc(CO)n3)ccc12"
< 5.30

State its pIC50: "Cc1c(CCC(=O)O)c(=O)oc2c(C)c(OCc3cccc(Br)c3)ccc12"
< 5.30

Let me know recorded pIC50 for "CCCCOc1ccc2c(C)c(CC(=O)O)c(=O)oc2c1C" , thanks.
5.82

Recall and state the measured pIC50 for "Cc1c(CC(=O)O)c(=O)oc2c(C)c(OCCn3cccc3)ccc12" .
< 5.30

State, in one line, measured pIC50 of "Cc1c(OCc2cccc(Br)c2)ccc2cc(C(=O)NO)c(=O)oc12"
6.35

Give me measured pIC50, please, for this compound: "COCCOc1ccc2c(C)c(CC(=O)O)c(=O)oc2c1C"
< 5.30

Give pIC50 for "Cc1c(OCc2cccc(Br)c2)ccc2cc(C(N)=O)c(=O)oc12"
< 5.30

Consider the compound "Cc1c(OCc2cccc(I)c2)ccc2cc(C(=O)O)c(=O)oc12" . State its measured pIC50.
< 5.30

Provide only the value of recorded pIC50 for "Cc1c(CC(=O)O)c(=O)oc2c(C)c(OCc3cc(F)cc(C(F)(F)F)c3)ccc12"
7.22

Quote pIC50 reported for "Cc1cccc(COc2ccc3c(C)c(CC(=O)O)c(=O)oc3c2C)c1" please.
6.30

Quick one: give measured pIC50 for "Cc1c(CC(N)=O)c(=O)oc2c(C)c(OCc3cccc(Br)c3)ccc12"
5.48

Fill in pIC50 for record "Cc1c(CC(=O)O)c(=O)oc2c(C)c(OCc3cccc(C(F)(F)F)n3)ccc12"
< 5.30

Answer with the recorded pIC50 of "Cc1c(CC(=O)O)c(=O)oc2c(C)c(OCc3ccncc3)ccc12" only.
< 5.30

Give the reported value of pIC50 for this record: "Cc1c(CC(=O)O)c(=O)oc2c(C)c(OCc3ccccn3)ccc12"
< 5.30

For the compound "Cc1c(OCc2cccc(Br)c2)ccc2cc(C(=O)O)c(=O)oc12" , give its reported pIC50.
< 5.30

Look up pIC50 of "Cc1c(CC(=O)O)c(=O)oc2c(C)c(OCCC(=O)O)ccc12" and report it.
< 5.30

Indicate the recorded pIC50 value for this compound: "CCCCCOc1ccc2c(C)c(CC(=O)O)c(=O)oc2c1C"
6.00

Please indicate pIC50 recorded for "Cc1cc(C)cc(COc2ccc3c(C)c(CC(=O)O)c(=O)oc3c2C)c1"
4.82

Specify reported pIC50 for the compound shown: "Cc1c(CC(=O)O)c(=O)oc2c(C)c(OS(=O)(=O)c3cccc(Cl)c3)ccc12"
< 5.30

# credit: ChEMBL document CHEMBL4373708
